Test system: H4 cells
Experiment: Cell proliferation measurement (CellTiter-Glo, 72 h)
Format: cell-based
Settings: Homo sapiens, anti-proliferation, H4, Brain (Astrocytoma)
measurement-name: pIC50
Friendly reminder that pIC50 comes from taking -log10 of the concentration in mol/L.

Which pIC50 is reported for this molecule? `C[C@@H]1NC(=O)NN=C1c1ccc(-n2ccc(C(F)(F)F)n2)c(C(F)(F)F)c1`
7.32

---

Tested on: DKMG cells
Assay: Cell proliferation measurement (CellTiter-Glo, 72 h)
Type: cell-based
Settings: Homo sapiens, anti-proliferation, Brain (Glioblastoma)
measurement-name: IC50

Which IC50 is reported for this compound? `C[C@@H]1NC(=O)NN=C1c1ccc(-n2ccc(C(F)(F)F)n2)c(C(F)(F)F)c1`
16.6 nM

---

Biological target: human full length PDE3A (Homo sapiens (Human))
Sequence (Q14432 whole entry): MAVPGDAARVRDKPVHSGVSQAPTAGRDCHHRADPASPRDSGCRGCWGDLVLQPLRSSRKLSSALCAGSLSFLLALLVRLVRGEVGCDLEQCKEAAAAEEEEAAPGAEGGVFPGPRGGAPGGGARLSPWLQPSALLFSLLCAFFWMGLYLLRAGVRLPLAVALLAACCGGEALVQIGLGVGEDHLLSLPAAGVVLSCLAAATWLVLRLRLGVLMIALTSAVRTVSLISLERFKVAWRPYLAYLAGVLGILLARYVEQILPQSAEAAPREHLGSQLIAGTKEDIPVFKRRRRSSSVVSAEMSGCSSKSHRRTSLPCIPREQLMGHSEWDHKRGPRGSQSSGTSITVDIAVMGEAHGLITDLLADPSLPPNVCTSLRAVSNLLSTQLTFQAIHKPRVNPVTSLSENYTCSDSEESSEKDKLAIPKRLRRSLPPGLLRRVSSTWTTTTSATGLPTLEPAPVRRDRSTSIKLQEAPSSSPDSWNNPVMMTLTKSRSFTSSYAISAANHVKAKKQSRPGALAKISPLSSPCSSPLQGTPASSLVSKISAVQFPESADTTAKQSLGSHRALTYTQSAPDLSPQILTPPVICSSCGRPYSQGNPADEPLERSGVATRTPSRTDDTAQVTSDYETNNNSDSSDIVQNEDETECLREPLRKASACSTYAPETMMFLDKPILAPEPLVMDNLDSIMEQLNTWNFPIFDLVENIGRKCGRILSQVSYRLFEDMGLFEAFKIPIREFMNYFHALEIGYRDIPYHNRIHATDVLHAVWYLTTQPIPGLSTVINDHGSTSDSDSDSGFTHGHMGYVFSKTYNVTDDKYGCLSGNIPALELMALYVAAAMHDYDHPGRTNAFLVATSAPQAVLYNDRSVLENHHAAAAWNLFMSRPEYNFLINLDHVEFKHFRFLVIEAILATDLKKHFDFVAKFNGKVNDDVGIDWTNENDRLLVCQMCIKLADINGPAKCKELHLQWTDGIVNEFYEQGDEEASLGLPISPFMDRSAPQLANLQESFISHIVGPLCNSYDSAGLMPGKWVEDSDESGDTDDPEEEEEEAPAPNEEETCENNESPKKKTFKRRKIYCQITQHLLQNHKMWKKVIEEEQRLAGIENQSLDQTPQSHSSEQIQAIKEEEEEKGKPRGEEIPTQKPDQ
measurement-name: pIC50
Friendly reminder that pIC50 comes from taking -log10 of the concentration in mol/L.

Lab request: please report pIC50 under test system human full length PDE3A (Homo sapiens (Human)) for `C[C@@H]1NC(=O)NN=C1c1ccc(-n2ccc(C(F)(F)F)n2)c(C(F)(F)F)c1`
7.04

---

IC50, human full length PDE3B (Homo sapiens (Human)), per-entry values.
Record the value in nM, omitting the unit from your answer.

Lab request: please report IC50 under test system human full length PDE3B (Homo sapiens (Human)) for `C[C@@H]1NC(=O)NN=C1c1ccc(NCc2ccn[nH]2)c(C(F)(F)F)c1`
6

Lab request: please report IC50 under test system human full length PDE3B (Homo sapiens (Human)) for `C[C@@H]1NC(=O)NN=C1c1ccc(-n2ccc(C(F)(F)F)n2)c(C(F)(F)F)c1`
81

---

Tested on: LN229 cells
Test: Cell proliferation measurement (CellTiter-Glo, 72 h)
Type: cell-based
Settings: Homo sapiens, LN-229, anti-proliferation, LN229, Brain (Glioblastoma)
measurement-name: IC50

Which IC50 is reported for this compound? `C[C@@H]1NC(=O)NN=C1c1ccc(-n2ccc(C(F)(F)F)n2)c(C(F)(F)F)c1`
> 0.1 µM

---

System: SK-MEL-3 cells
Experiment: Cell proliferation measurement (CellTiter-Glo, 72 h)
Assay type: cell-based
Details: Homo sapiens, SK-MEL3; anti-proliferation, SK-MEL-3, 72 h
pIC50: −log10 of the molar value.
Hi, to clarify the labels: True covers pIC50 from 9 upward, False covers anything below 9.

Answered cases to consult:
| structure-notation | group |
| --- | --- |
| C[C@@H]1NC(=O)NN=C1c1ccc(NC2CCCC2)c(C(F)(F)F)c1 | True |
| C[C@@H]1NC(=O)NN=C1c1ccc(N2CC(C)(O)C2)c(C(F)(F)F)c1 | True |

For this compound, is measured pIC50 9 or higher? `C[C@@H]1NC(=O)NN=C1c1ccc(NCc2ccn[nH]2)c(C(F)(F)F)c1`
True

For this compound, is measured pIC50 9 or higher? `C[C@@H]1NC(=O)NN=C1c1ccc(-n2ccc(C(F)(F)F)n2)c(C(F)(F)F)c1`
False

---

Test system: T98G cells
Experiment: Cell proliferation measurement (CellTiter-Glo, 72 h)
Format: cell-based
Conditions: Homo sapiens, anti-proliferation, Brain (Glioblastoma)
measurement-name: IC50

Which IC50 is reported for this compound? `C[C@@H]1NC(=O)NN=C1c1ccc(-n2ccc(C(F)(F)F)n2)c(C(F)(F)F)c1`
> 100 nM
